Origin of measurements: patent US20240165282A1

Target: human cloned somatostatin receptor 1 (human) (UniProt P30872)
Sequence (P30872 whole entry): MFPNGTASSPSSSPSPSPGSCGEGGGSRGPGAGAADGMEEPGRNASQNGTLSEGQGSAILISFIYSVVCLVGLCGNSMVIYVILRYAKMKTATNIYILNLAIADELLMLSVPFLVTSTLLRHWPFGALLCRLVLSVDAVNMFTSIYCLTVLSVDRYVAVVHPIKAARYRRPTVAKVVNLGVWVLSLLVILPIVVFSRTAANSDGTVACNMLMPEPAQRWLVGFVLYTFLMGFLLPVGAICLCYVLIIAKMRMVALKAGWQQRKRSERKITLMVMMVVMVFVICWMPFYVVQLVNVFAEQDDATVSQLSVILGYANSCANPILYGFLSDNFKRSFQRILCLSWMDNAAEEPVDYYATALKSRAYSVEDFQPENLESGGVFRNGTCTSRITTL
Experiment: 125I-Tyr11-SRIF-14 displacement
*1 amine or outer side, *2 acyl side, *3 side chain or, on linkers, in order; H or OH if unused. Bridges are numbered along the chain shown (N, C = ends). [ ]: non-standard residue; d: D form. The star is where a group is joined. DOTA = O=C(O)CN1CCN(CC(=O)O)CCN(CC(=O)*)CCN(CC(=O)O)CC1; N(2-mercaptoethyl)Gly = O=C(CN(CCS[*:3])[*:1])[*:2]
Reported pKi is given for each of the following binders.
Lab note — pKi values are minus log10 of concentrations in M.

Name the recorded pKi of the binder listed here: {DOTA}-[dF]RCF[dW]KTF[N(2-mercaptoethyl)Gly]-NH2 (disulfide 3-9; also: Cu complex of DOTA) [SEQ ID NO: 5]
6.19

***
Tell us which pKi value is on record for {DOTA}-[dF]RCF[dW]KTF[N(2-mercaptoethyl)Gly]-NH2 (disulfide 3-9; also: Lu complex of DOTA) [SEQ ID NO: 6]
6.59

Supply reported pKi belonging to this binder: H-[dF]RCF[dW]KTF[N(2-mercaptoethyl)Gly]-NH2 (disulfide 3-9; SMILES C[C@@H](O)[C@@H]1NC(=O)[C@H](CCCCN)NC(=O)[C@@H](Cc2c[nH]c3ccccc23)NC(=O)[C@H](Cc2ccccc2)NC(=O)[C@@H](NC(=O)[C@H](CCCNC(=N)N)NC(=O)[C@H](N)Cc2ccccc2)CSSCCN(CC(N)=O)C(=O)[C@H](Cc2ccccc2)NC1=O) [SEQ ID NO: 1]
6.82

Please report pKi for the following binder: {DOTA}-[dF]RCF[dW]KTF[N(2-mercaptoethyl)Gly]-NH2 (disulfide 3-9; also: Ga complex of DOTA) [SEQ ID NO: 4]
6.06
